// Kd lookup, one value per entry
Protocol text: Binding affinity to HIV1 N-trimer gp41 mimic IZN36 by surface plasmon resonance analysis

>  <Smiles data>
CC(C)C[C@@H](NC(=O)[C@@H](Cc1c[nH]c2ccccc12)NC(=O)[C@@H](CCC(N)=O)NC(=O)[C@@H](Cc1c[nH]c2ccccc12)NC(=O)[C@@H](CCC(=O)O)NC(=O)[C@@H](CCCCN)NC(=O)[C@@H](Cc1ccc(O)cc1)NC(=O)[C@@H](CC(=O)O)NC(=O)[C@@H](CS)NC(=O)[C@@H](C)NC(=O)CNC(=O)[C@H](N)CCCCN)C(=O)N[C@H](CS)C(=O)N[C@H](C)C(=O)N[C@H](C)C(=O)O

>  <Kd>
0.17 µM

$$$$
>  <Smiles data>
CC(C)C[C@@H](NC(=O)[C@@H](Cc1c[nH]c2ccccc12)NC(=O)[C@@H](CCC(N)=O)NC(=O)[C@@H](Cc1c[nH]c2ccccc12)NC(=O)[C@@H](CCC(=O)O)NC(=O)[C@H]1CCCN1C(=O)[C@@H](Cc1ccc(O)cc1)NC(=O)[C@@H](CC(=O)O)NC(=O)[C@@H](CS)NC(=O)[C@@H](C)NC(=O)CNC(=O)[C@H](N)CCCCN)C(=O)N[C@H](CS)C(=O)N[C@H](C)C(=O)N[C@H](C)C(=O)O

>  <Kd>
0.08 µM

$$$$
>  <Smiles data>
CC(C)C[C@@H](NC(=O)[C@@H](Cc1c[nH]c2ccccc12)NC(=O)[C@@H](CCCNC(=N)N)NC(=O)[C@@H](Cc1c[nH]c2ccccc12)NC(=O)[C@@H](CCC(=O)O)NC(=O)[C@H]1CCCN1C(=O)[C@@H](Cc1ccc(O)cc1)NC(=O)[C@@H](CC(=O)O)NC(=O)[C@@H](CS)NC(=O)[C@@H](C)NC(=O)CNC(=O)[C@H](N)CCCCN)C(=O)N[C@H](CS)C(=O)N[C@H](C)C(=O)N[C@H](C)C(=O)O

>  <Kd>
0.13 µM

$$$$
>  <Smiles data>
CC(C)C[C@@H](NC(=O)[C@@H](Cc1c[nH]c2ccccc12)NC(=O)[C@@H](CCCNC(=N)N)NC(=O)[C@@H](Cc1c[nH]c2ccccc12)NC(=O)[C@@H](CCC(=O)O)NC(=O)[C@H]1CCCN1C(=O)[C@@H](Cc1ccc(O)cc1)NC(=O)[C@@H](CC(=O)O)NC(=O)[C@@H](CS)NC(=O)[C@@H](C)NC(=O)CNC(=O)[C@@H](CCCCN)NC(=O)[C@H](N)CCCCN)C(=O)N[C@H](CS)C(=O)N[C@H](C)C(=O)N[C@H](C)C(=O)O

>  <Kd>
0.17 µM

$$$$
